These measurements were taken from patent US20240400701A1.

Measured pEC50 by item
Target: T1, human AMHRII (anti-Mullerian hormone receptor type 2) (human, UniProt Q16671 18-573)
T1 construct: whole, on cells; also called AMHR2; human AMHR2
T1 sequence (looked up): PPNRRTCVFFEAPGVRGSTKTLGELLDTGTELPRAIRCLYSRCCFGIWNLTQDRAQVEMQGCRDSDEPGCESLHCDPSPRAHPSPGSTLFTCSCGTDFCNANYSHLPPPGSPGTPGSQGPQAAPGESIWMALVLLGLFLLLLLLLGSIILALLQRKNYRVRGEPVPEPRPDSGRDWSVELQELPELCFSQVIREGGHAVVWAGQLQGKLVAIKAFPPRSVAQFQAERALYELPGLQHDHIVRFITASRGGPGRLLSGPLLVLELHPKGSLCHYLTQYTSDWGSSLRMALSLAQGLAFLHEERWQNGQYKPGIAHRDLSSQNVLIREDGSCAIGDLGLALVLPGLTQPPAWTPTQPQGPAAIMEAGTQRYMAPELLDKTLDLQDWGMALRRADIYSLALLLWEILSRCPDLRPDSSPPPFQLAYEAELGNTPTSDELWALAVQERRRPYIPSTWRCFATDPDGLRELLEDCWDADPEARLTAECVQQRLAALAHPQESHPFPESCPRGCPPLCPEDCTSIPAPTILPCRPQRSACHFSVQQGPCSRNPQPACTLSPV
Assay: FACS on CHO-K1 cells over-expressing human AMHR2
The scale used: pEC50 is minus the common logarithm of the concentration in molar units.

Look up and report measured pEC50 for this entry: xi108F3D1E9 hIgG1 (antibody, V domains shown, Murine variable domains in human chimeric format, human IgG1; also called xi108F3D1E9 hlgG1; 108F3D1E9 (chimeric)) VH: DVQLQESGPGLVKPSQSLSLTCTVTGYSITSDFAWNWIRQFPGNKLEWMGYINFSGSTSYNPSLKSRISITRDTSKNQFFLQLNSVTTEDTATYYCAGSRYSWFAYWGQGTLVTVSA VL: DIVLTQSPASLAVSLGQRATISCRASESVDTYGNSFMHWYQQKPGQPPKLLIYRASNLESGIPARFSGSGSRTDFTLTINPVEADDVATYYCQQSNEDPYTFGGGTKLEIK
8.86

Provide one value: measured pEC50 of xi114A2B5 hIgG1 (antibody, V domains shown, Murine variable domains in human chimeric format, human IgG1; also called 114A2B5 (chimeric)) VH: DVQLQESGPGLVKPSQSLSLTCTVTGYSITSDYAWNWIRQFPGNKLEWMGYISYSGSTSYNPSLKSRISITRDTSKNQFFLQLNSVTTEDTATYYCARSRYSWFDYWGQGTLVTVSA VL: DIVLTQSPASLAVSLGQRATLSCRASESVDTYGNSFMHWYQQKPGQSPKLLIYRASSLESGIPARFSGSGSRTDFTLTINPVEAADVATYYCQQSNEDPYTFGGGTKLEIK
8.98

Please report the measured pEC50 for xi103C5G10F9 hIgG1 (antibody, V domains shown, Murine variable domains in human chimeric format, human IgG1; also called 103C5G10F9 (chimeric)) VH: DVQLQESGPGLVKPSQSLSLTCTVTGYSITSDYAWNWIRQFPGNKLEWMGYISYSGSTSYNPSLKSRISITRDTSKNQFFLQLNSVTTEDTATYYCARSRYSWFDYWGQGTLVTVSA VL: DIVLTQSPTSLAVSLGQRATLSCSASESVDTYGNSFMHWYQQKPGQSPKLLIYRASSLESGIPARFSGSGSRTDFTLTINPVEAADVATYYCQQSNEDPYTFGGGTKLEIK
8.97

For the binder xi35D4G3 hIgG1 (antibody, V domains shown, Murine variable domains in human chimeric format, human IgG1; also called 35D4G3 (chimeric)) VH: QVRLLQSGAALVKPGASAKMSCKASGYTFTDYWVSWVKQSHGKSLEWIGEIYPDNGITNFNEKFKGKATLTVDKSTRTAYMELSRLTSEDSAIYYCTRQRDYWGQGVMVTVSS VL: DVVLTQTPGSLSVTLGDQVSISCRSSQSLKYGDGYTYLEWYLQKPGQSPQLLFYGVSNRFSGVPDRFIGSGSGTDFTLKISRVEPEDLGVYYCFQATHDPNTFGTGTKLDLK , give its reported pEC50.
9.96

Could you please provide reported pEC50 for xi94C4C3 hIgG1 (antibody, V domains shown, Murine variable domains in human chimeric format, human IgG1; also called xi94C4C3 hlgG1; 94C4C3 (chimeric)) VH: DVQLQESGPGLVKPSQSLSLTCTVTGYSITSDYAWNWIRQFPGNKLEWMGYISYSGSISYNPSLKSRISITRDTSKNQFFLQLNSVTTEDTATYYCARSRYSWFDYWGQGTLVTVSA VL: DIVLTQSPTSLAVSLGQRATLSCSASESVDTYGNSFMHWYQQKPGQPPKLLIYRASSLESGIPVRFSGSGSRTDFTLTINPVEAADVATYYCQQSNEDPYTFGGGTKLEIK ? Thanks!
8.93

Please report the measured pEC50 for xi31D9B3 hIgG1 (antibody, V domains shown, Murine variable domains in human chimeric format, human IgG1; also called xi31D9B3 hlgG1; 31D9B3 hlgG1) VH: QVKLLQSGAALVKPGASVKMSCKASGYTFTDYWVSWVKQSHGKSLEWIGEIYPKNGVSNFNEKFKGKATLTVDKSTSTAYMELRRLTSEDSAIFYCTRQRDYWGQGVMVTVSS VL: DVVLTQTPGSLSVTLGDQASISCRSSQSLEYGDGYTYLEWYLQKPGQSPQLLIYGVSNRFSGVPDRFIGSGSGTDFTLKISRVEPEDLGVYYCFQATHDPNTFGAGTKLELK
8.94
